Experimental system: HLA-DR DRB1*0404 (human)
Measured endpoint: IC50

Reported IC50 for CEQIADSQHRSHRQM (modifications not checked) [Flu.M1.154] : what is it?
> 10 µM
